Tested on: HEK293 cells
assay_remarks: Cytotoxicity (cell count) in HEK293 cells
test_context: human
Quick reference for TC50 among some compounds

compound	test_system	TC50
COC(=O)Nc1nc2ccc(C(=O)c3cccs3)cc2[nH]1	HEK293 cells	< 0.078 µM
CC[C@]1(O)C[C@@H]2CN(CCc3c([nH]c4ccccc34)[C@@](C(=O)OC)(c3cc4c(cc3OC)N(C)[C@H]3[C@@](O)(C(=O)OC)[C@H](OC(C)=O)[C@]5(CC)C=CCN6CC[C@]43[C@@H]65)C2)C1	HEK293 cells	< 0.078 µM
CC(=O)O[C@H]1C(=O)[C@@]2(C)[C@H]([C@H](OC(=O)c3ccccc3)[C@]3(O)C[C@H](OC(=O)[C@H](O)[C@@H](NC(=O)c4ccccc4)c4ccccc4)C(C)=C1C3(C)C)[C@]1(OC(C)=O)CO[C@@H]1C[C@@H]2O	HEK293 cells	< 0.078 µM
O=C1c2c(O)ccc(O)c2C(=O)c2c(NCCNCCO)ccc(NCCNCCO)c21	HEK293 cells	6.53 µM
Nc1ncn([C@@H]2O[C@H](CO)[C@@H](O)[C@H]2O)c(=O)n1	HEK293 cells	> 10 µM
CC[C@]1(O)C[C@H]2CN(CCc3c([nH]c4ccccc34)[C@@](C(=O)OC)(c3cc4c(cc3OC)N(C=O)[C@H]3[C@@](O)(C(=O)OC)[C@H](OC(C)=O)[C@]5(CC)C=CCN6CC[C@]43[C@@H]65)C2)C1	HEK293 cells	< 0.078 µM
CN(Cc1cnc2nc(N)nc(N)c2n1)c1ccc(C(=O)N[C@@H](CCC(=O)O)C(=O)O)cc1 [ELN476809, methotrexate]	HEK293 cells	> 10 µM
O=c1c(O)c(-c2cc(O)c(O)c(O)c2)oc2cc(O)cc(O)c12	HEK293 cells	> 10 µM
COC[C@H]1OC(=O)c2coc3c2[C@@]1(C)C1=C(C3=O)[C@@H]2CCC(=O)[C@@]2(C)C[C@H]1OC(C)=O	HEK293 cells	1.9 µM
